Tested on: T-47D breast
Experimental protocol: NCI tumour cell line growth inhibition, 48 h; in the data active = GI50 below about 0.43 µM; inactive = the rest
Labels: 1.0 (active), 0.0 (inactive)

Compound: Cc1cc(Nc2cc(CN3CCOCC3)c3nc(C)c(Cc4ccc(Cl)cc4F)n3n2)n[nH]1
Group: 0.0
--
Compound: CN(C)CCN1C(=O)c2cccc3c(N)ccc(c23)C1=O
Group: 0.0
--
Compound: COc1ccc(S(=O)(=O)NC2=NCCN2C(=S)SN2CCn3c2nsc3=S)cc1OC
Group: 0.0
--
Compound: Cc1cc(C(=O)N[C@@H](CCC(=O)O)C(=O)O)sc1CC[C@@H]1CNc2nc(N)[nH]c(=O)c2C1
Group: 1.0
--
Compound: COc1cccc2c1C(=O)c1c(O)c3c(c(O)c1C2=O)C[C@@](O)(C(=O)CO)C[C@@H]3OC1CC(OC(C)=O)C(OC(C)=O)C(C)O1 (some centres undefined)
Group: 1.0
--
Compound: [C-]#[O+].[C-]#[O+].[Ir].[O-]c1ccc2ccccc2c1N=Nc1ccccc1
Group: 0.0
--
Compound: COc1ccc2c(O)c(/C=C3\N=Nc4ncccc43)oc2c1C[C@H]1CCNC[C@H]1F
Group: 0.0
--
Compound: Clc1nc(Cl)c2ncn(C/C=C/Cn3cnc4c(Cl)nc(Cl)nc43)c2n1
Group: 0.0
--
Compound: COc1cc(-c2nc3ccccc3[nH]2)ccc1OCC(=O)N=Nc1c(O)[nH]c2ccc(Cl)cc12
Group: 0.0
--
Compound: CCc1nc(-n2c(CC)nc3ccccc3c2=O)nc(N)c1-c1ccc(Cl)cc1
Group: 0.0
--
Compound: Fc1c[c-]c(-c2ccccn2)c(F)c1.[CH3-].[Pt+2].c1ccc([PH+](c2ccccc2)c2ccccn2)cc1
Group: 0.0
--
Compound: CC(C)(C)OC(=O)N1CC(Cn2cc(C(F)(F)F)c3c(Cl)ncnc32)C1
Group: 0.0
--
Compound: O=[N+]([O-])c1cccc(/C=C/c2ccccn2)c1
Group: 0.0
--
Compound: O=C1c2ccc3c4c(ccc(c24)C(=O)N1CCCNCc1ccccc1)C(=O)N(CCCNCc1ccccc1)C3=O
Group: 1.0
